# Test system: TK-10 renal
# method summary: NCI tumour cell line growth inhibition, 48 h; in the data active = GI50 below about 0.43 µM; inactive = the rest
A correct response names exactly one class from active, inactive

query: GET /call?item= CC(C)=CCC/C(C)=C/CC/C(C)=C/CC/C=C(\C)CC/C=C(\C)CCC(=O)Nc1ccn(C2OC(CO)C(O)C2(F)F)c(=O)n1 (centres undefined) returns the recorded outcome of this test.
result: inactive

query: GET /call?item= CN1CCN(Cc2ccc(NC(=O)c3[nH]ncc3Nc3ncnc4sc5c(c34)CCCC5)cc2)CC1 returns the recorded outcome of this test.
result: inactive

query: GET /call?item= CN1CCN(CC(O)COc2c(Br)c(Br)c(Br)c3c2OC(C)(C)C3)CC1 (centres undefined) returns the recorded outcome of this test.
result: inactive

query: GET /call?item= C/C1=C\[C@@H](O)C(=O)/C=C/C=C\c2csc(n2)[C@@H](C)NC(=O)C[C@@]2(CC1)S(=O)SC(=O)[C@]2(C)O (some centres undefined) returns the recorded outcome of this test.
result: active

query: GET /call?item= CC(C)(C)CN1CCn2c(nc3c(N)nccc32)S1 returns the recorded outcome of this test.
result: inactive

More entries:
query: GET /call?item= COc1ccc2c(c1OC)C(=O)OC2C1c2c(c([N+](=O)[O-])c3c(c2OC)OCO3)CCN1C (centres undefined) returns the recorded outcome of this test.
result: inactive

query: GET /call?item= Cc1cccc(NC(=O)c2sc3nc4c(cc3c2N)CN(Cc2ccccc2)CC4)c1C returns the recorded outcome of this test.
result: inactive

query: GET /call?item= CCn1c2ccccc2c2cc(/C=C(/C#N)C(N)=O)ccc21 returns the recorded outcome of this test.
result: inactive

query: GET /call?item= CC1(C)N=C(N)N=C(N)N1c1ccc(CCCCc2ccc(S(=O)(=O)F)cc2)c(Cl)c1 returns the recorded outcome of this test.
result: inactive

----------
# System: MOLT-4 leukemia
# method summary: NCI tumour cell line growth inhibition, 48 h
readout type: TGI

query: Return value of TGI for input [N-]=[N+]=C1C(=O)C2CC3CC(C2)CC1C3 , no commentary.
result: > 100 µM

query: Return value of TGI for input O=[N+]([O-])c1cc(S(=O)(=O)Oc2ccccc2)ccc1Cl , no commentary.
result: 45.1 µM

query: Return value of TGI for input COc1ccc(OC)c(Cn2cc3c(c2)-c2oncc2CC3)c1 , no commentary.
result: > 41.2 µM

query: Return value of TGI for input CN(CCCNC(=O)c1nn(-c2ccc(Cl)cc2Cl)c2c1Cc1ccccc1-2)CCCNC(=O)c1nn(-c2ccc(Cl)cc2Cl)c2c1Cc1ccccc1-2 , no commentary.
result: 3.98 µM

query: Return value of TGI for input CC(=O)Oc1ccccc1C(=O)/C=C/c1cccc([N+](=O)[O-])c1 , no commentary.
result: > 100 µM

Kindly give each listed record's TGI.
1. N/N=C1\CC(=O)NC(=O)N1
2. CCOP(=O)(OCC)C(C)(CC)NC (stereo unspecified)
3. CC1(C)C2CCC13CS(=O)(=O)N1O[C@]13C(=O)O2 (stereo partly specified)
4. CC(C)=C/C=C1/CS(=O)(=O)C=C1C
5. CCN(Cc1ccc(Cl)s1)c1ccc(CO)c(Cl)c1
6. COc1ccc(OC)c(C2SCC(=O)N2NC(=O)C(O)c2ccccc2)c1 (stereo unspecified)

result:
> 100 µM
> 100 µM
> 100 µM
> 100 µM
> 75.1 µM
> 100 µM
